Tested on: H3R
Test: Selectivity index, ratio of CC50 for human SH-SY5Y cells to IC50 for inhibition of human H3R expressed in methylhistamine-induced human H3-bla U2OS cells
Format: toxicity, cell-based
Details: read-out: Ratio CC50/IC50
QUANTITY_MEASURED: selectivity ratio

>>> result("CCN(C)CCCCOc1ccc2c(=O)c(-c3ccc(OCCN4CCCCC4)cc3)coc2c1")
"> 370"

* * *

Experiment: Cmax in ICR mouse brain at 30 mg/kg, po measured after 40 mins by LCMS/MS method
Assay type: ADME, organism-based
Design: dose 30 mg/kg, route oral
QUANTITY_MEASURED: Cmax (ng/mL)

>>> numeric_value("CCN(C)CCCCOc1ccc2c(=O)c(-c3ccc(OCCN4CCCCC4)cc3)coc2c1")
762

* * *

Target: Acetylcholinesterase (Mus musculus)
Sequence (P21836 whole entry): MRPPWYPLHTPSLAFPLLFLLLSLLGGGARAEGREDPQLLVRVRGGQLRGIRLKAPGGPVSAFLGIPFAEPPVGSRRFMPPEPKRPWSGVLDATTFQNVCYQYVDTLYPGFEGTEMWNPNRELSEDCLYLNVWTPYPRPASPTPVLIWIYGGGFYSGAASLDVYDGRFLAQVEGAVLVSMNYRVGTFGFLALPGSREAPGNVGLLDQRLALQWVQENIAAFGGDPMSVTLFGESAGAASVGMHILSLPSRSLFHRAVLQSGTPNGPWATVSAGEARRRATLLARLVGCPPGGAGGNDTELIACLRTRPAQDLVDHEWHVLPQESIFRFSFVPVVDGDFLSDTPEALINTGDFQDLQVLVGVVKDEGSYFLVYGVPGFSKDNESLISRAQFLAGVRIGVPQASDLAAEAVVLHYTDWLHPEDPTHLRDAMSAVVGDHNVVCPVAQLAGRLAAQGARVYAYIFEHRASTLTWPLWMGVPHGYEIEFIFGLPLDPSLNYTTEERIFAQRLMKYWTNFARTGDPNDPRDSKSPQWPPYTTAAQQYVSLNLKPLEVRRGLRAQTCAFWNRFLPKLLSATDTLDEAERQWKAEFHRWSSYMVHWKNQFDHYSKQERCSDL
Assay: Inhibition of mouse brain AChE using acetylthiocholine iodide as substrate measured after 30 mins by Ellman's method
Conditions: read-out: IC50
QUANTITY_MEASURED: IC50 (µM)

>>> numeric_value("O=c1c(-c2ccc(OCCN3CCCCC3)cc2)coc2cc(OCCCCN3CCCCC3)ccc12")
0.2
>>> numeric_value("CCN(C)CCCCOc1ccc2c(=O)c(-c3ccc(OCCN4CCCCC4)cc3)coc2c1")
0.081
>>> numeric_value("O=c1c(-c2ccc(O)cc2)coc2cc(OCCCCN3CCCCC3)ccc12")
26.8
>>> numeric_value("COc1ccc(-c2coc3cc(OCCNC4CCCC4)ccc3c2=O)cc1")
4.5
>>> numeric_value("COc1ccc(-c2coc3cc(OCCCCN4CCCCC4)ccc3c2=O)cc1")
3.98

* * *

# key: entry, value: IC50
Target: Cholinesterase (Mus musculus, UniProt Q03311)
Sequence (Q03311 whole entry): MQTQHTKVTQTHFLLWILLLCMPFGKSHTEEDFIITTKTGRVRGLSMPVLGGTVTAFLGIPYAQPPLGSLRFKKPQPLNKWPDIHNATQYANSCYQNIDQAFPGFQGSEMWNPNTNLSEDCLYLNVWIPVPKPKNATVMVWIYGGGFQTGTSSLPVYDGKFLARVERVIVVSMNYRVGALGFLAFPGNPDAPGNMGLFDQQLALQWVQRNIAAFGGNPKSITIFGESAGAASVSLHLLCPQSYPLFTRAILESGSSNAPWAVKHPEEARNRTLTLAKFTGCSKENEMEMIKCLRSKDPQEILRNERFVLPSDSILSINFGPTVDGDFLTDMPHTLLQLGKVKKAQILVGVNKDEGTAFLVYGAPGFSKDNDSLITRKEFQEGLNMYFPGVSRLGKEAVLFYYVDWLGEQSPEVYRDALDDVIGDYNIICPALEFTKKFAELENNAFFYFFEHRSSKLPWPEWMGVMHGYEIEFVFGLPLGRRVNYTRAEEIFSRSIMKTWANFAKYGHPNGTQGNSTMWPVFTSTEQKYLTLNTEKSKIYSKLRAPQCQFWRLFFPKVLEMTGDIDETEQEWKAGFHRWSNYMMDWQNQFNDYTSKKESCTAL
Assay: Inhibition of mouse plasma BuChE using S-butyrylacetylthiocholine iodide as substrate measured after 30 mins by Ellman's method relative to control
Conditions: read-out: IC50
QUANTITY_MEASURED: IC50 (µM)

>>> numeric_value("O=c1c(-c2ccc(OCCN3CCCCC3)cc2)coc2cc(OCCCCN3CCCCC3)ccc12")
2.49
>>> numeric_value("O=c1c(-c2ccc(OCCN3CCCCC3)cc2)coc2cc(OCCN3CCCCC3)ccc12")
2.92
>>> numeric_value("COc1ccc(-c2coc3cc(OCCCCN4CCCCC4)ccc3c2=O)cc1")
8.83
>>> numeric_value("O=c1c(-c2ccc(OCCN3CCCCC3)cc2)coc2cc(OCCN3CCCC3)ccc12")
4.55
>>> numeric_value("CCN(C)CCCCOc1ccc2c(=O)c(-c3ccc(OCCN4CCCCC4)cc3)coc2c1")
2.89
>>> numeric_value("O=c1c(-c2ccc(O)cc2)coc2cc(OCCCCN3CCCCC3)ccc12")
24.8
>>> numeric_value("COc1ccc(-c2coc3cc(OCCNC4CCCC4)ccc3c2=O)cc1")
5.98
>>> numeric_value("COc1ccc(-c2coc3cc(OCCNc4c5c(nc6ccccc46)CCCC5)ccc3c2=O)cc1")
0.38
>>> numeric_value("COc1ccc(-c2coc3cc(OCCNC4CCCCC4)ccc3c2=O)cc1")
21.6

* * *

Biological target: Histamine H3 receptor (Homo sapiens)
Sequence (Q9Y5N1 whole entry): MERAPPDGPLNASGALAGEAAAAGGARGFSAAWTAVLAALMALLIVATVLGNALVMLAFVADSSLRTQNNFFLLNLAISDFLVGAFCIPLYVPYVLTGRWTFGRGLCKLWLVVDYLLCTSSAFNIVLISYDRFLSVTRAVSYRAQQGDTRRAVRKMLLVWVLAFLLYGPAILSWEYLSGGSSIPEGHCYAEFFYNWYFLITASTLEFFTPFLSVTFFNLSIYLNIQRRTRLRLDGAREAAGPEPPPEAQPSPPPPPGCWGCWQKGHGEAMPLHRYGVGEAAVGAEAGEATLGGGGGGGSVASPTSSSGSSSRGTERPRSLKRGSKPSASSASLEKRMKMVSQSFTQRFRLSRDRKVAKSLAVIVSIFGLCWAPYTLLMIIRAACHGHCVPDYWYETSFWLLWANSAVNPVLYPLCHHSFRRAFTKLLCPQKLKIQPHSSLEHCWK
Experiment: Inhibition of human H3R expressed in methylhistamine-induced human H3-bla U2OS cells incubated for 30 mins by beta-lactamase complementation technology
Type: cell-based
Details: read-out: IC50
pIC50: −log10 of the molar value.
QUANTITY_MEASURED: pIC50

>>> numeric_value("O=c1c(-c2ccc(OCCN3CCCCC3)cc2)coc2cc(OCCN3CCCC3)ccc12")
5.68
>>> numeric_value("O=c1c(-c2ccc(OCCN3CCCCC3)cc2)coc2cc(OCCN3CCCCC3)ccc12")
5.71
>>> numeric_value("CCN(C)CCCCOc1ccc2c(=O)c(-c3ccc(OC)cc3)coc2c1")
6.37
>>> numeric_value("CCN(C)CCCCOc1ccc2c(=O)c(-c3ccc(OCCN4CCCCC4)cc3)coc2c1")
6.57
>>> numeric_value("COc1ccc(-c2coc3cc(OCCCCN4CCCCC4)ccc3c2=O)cc1")
6.14
>>> numeric_value("O=c1c(-c2ccc(OCCN3CCCCC3)cc2)coc2cc(OCCCCN3CCCCC3)ccc12")
6.39
>>> numeric_value("CCN(C)CCCOc1ccc2c(=O)c(-c3ccc(OC)cc3)coc2c1")
6.28
